# pEC50 per record follows
- assayed target: T1, human ROR1 (full-length, on the cell surface) (human, UniProt Q01973 30-937)
- T1 construct: whole, on cells; the tumour cell lines carry their own ROR1; also called Ba/F3-ROR1 cells; Jeko-1
- T1 sequence (Q01973 30-937): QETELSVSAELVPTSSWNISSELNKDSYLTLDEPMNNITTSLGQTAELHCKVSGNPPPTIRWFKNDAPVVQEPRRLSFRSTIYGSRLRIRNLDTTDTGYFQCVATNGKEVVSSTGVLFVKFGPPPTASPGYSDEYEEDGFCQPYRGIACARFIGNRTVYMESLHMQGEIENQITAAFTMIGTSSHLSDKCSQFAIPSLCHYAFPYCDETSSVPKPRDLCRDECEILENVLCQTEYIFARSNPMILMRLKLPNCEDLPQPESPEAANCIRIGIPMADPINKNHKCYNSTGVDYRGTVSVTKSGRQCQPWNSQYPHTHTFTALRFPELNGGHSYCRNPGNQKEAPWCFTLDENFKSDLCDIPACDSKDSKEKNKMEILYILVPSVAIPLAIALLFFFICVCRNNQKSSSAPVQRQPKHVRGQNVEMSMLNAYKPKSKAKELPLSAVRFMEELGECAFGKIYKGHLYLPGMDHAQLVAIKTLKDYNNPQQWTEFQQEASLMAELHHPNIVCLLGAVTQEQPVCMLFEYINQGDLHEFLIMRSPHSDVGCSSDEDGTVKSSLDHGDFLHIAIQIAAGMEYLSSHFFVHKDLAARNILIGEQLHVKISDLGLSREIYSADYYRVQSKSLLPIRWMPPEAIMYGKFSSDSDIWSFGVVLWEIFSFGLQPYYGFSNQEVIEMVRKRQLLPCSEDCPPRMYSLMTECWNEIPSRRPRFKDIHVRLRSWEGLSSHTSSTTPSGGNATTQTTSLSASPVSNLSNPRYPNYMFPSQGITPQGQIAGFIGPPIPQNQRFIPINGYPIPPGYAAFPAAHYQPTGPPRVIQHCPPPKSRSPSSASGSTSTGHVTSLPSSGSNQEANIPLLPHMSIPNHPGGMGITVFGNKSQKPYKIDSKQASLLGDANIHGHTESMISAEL
- procedure text: flow cytometry, Ba/F3-ROR1 cells
A value of pEC50 is the negative decimal logarithm of a concentration given in moles per litre.

binder	pEC50
38F8-Hu37 (antibody, human IgG1, kappa, V domains shown, humanized, human IgG1 / kappa) VH: QVQLVESGGGLVKPGGSLRLSCAASGFTFSNYAMSWVRQAPGKGLEWVASISSGGPTYYADSVKGRFTISRDNAKNSLYLQMNSLRAEDTAVYYCARGYRYDVNWYFDVWGAGTMVTVSS VL: DIQMTQSPSSLSASVGDRVTITCQASQDISNYLTWFQQKPGKSPKTLIHRANRLVTGVPSRFSGSGSGTDYTFTISSLQPEDIAIYYCLQYDEFPYTFGGGTKVEIKR	8.63

Which pEC50 value belongs to 38F8-Hu38 (antibody, human IgG1, kappa, V domains shown, humanized, human IgG1 / kappa) VH: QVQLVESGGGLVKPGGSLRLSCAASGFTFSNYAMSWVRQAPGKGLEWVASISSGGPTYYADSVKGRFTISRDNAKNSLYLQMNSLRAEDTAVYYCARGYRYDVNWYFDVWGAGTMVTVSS VL: DIQMTQSPSSLSASVGDRVTITCQASQDINSYLTWFQQKPGKSPKTLIHRANRLVTGVPSRFSGSGSGTDYTFTISSLQPEDIAIYYCLQYDEFPYTFGGGTKVEIKR ?
8.84

# lookup: pEC50 of 38F8-Hu14 (antibody, human IgG1, kappa, V domains shown, humanized, human IgG1 / kappa) VH: EVQLVESGGGLVQPGGSLRLSCTASGFTFSNYAMSWVRQAPGKGLEWVASISSGGPTYYADSVKGRFTVSRDNSRNTLYLQMNSLRAEDTAVYYCARGYRYDVNWYFDVWGRGTLVTVSS VL: DIQMTQSPSSLSASVGDRVTITCQASQDISNYLTWFQQKPGKSPKTLIHRANRLVTGVPSRFSGSGSGTDFTFTISSLQPEDIATYYCLQYDEFPYTFGGGTKVEIKR
9.08
